B1: HDV Ribozyme (parent)
chain: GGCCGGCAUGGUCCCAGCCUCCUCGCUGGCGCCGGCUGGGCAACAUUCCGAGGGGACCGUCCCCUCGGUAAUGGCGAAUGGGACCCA

- Variants of: B1
- assay notes: self-cleavage, relative activity (ratio to wild type); higher = more cleavage; co-transcriptional
Would you mind telling me the reported self-cleavage of each entry?
Answers are plain numbers.

Some variants with recorded self-cleavage:
G17U C85G : 0.554
G5U G28A : 0
C33A A51U : 0.373
U47C G76A : 0.787
G2C G39A : 0.121
U20G G80A : 0.0831
G2A G10A : 0.0256
U20C C57G : 0.0723
A71U C75A : 0.0739
G5C G54U : 0.217

Please state self-cleavage for every variant in the list that follows.
1. U27A C75A
2. C14A G54A
3. U46C U47C
4. C33G A45C
5. G2U G31C
6. U46C C64A
7. A16C C62G

Key:
[0.147, 0.751, 0.743, 0.0449, 0.0155, 0.569, 0.403]

Please state self-cleavage for every variant in the list that follows.
1. C24U G28C
2. G53A U60C
3. U20C A70G
4. C4U C66U
5. C3G G80A
6. C22A C66G
7. G5U U9C

Key:
0.0475
0.935
0.107
0.704
0.0911
0.373
0.332
